Read-out: Macrophage colony-stimulating factor (MCSF), CSF1 (gene 1435)
Assay text: BSK_LPS_MCSF: BioMAP Diversity Plus: LPS Assay for Macrophage colony-stimulating factor (MCSF) Biomarker Activity (AID 2283083)
Test conditions: primary human HUVEC with PBMC; actives raise or lower the signal
Calls of active or inactive are those of the source. The calls were made as follows: active = hit-call score of the fitted dose curve at least 0.9, where 1 is the maximum; inactive = score below 0.9.
Outcomes: true for active, false for inactive

# Compound, Label value
rows = [
    ("C=CC(=C)CCC=C(C)C", "false"),
    ("CC(=O)c1ccc2c(c1)[C@H](NC(=O)c1ccc(F)cc1)[C@@H](O)C(C)(C)O2", "false"),
    ("COC(=O)CC(=O)OC", "false"),
    ("C1N2CN3CN1CN(C2)C3", "false"),
    ("O=C(CCCCCCCCc1cccnc1)N1CCC(C=C(c2ccccc2)c2ccccc2)CC1", "true"),
    ("COCCOc1cc2cc(C(=O)NC3CCN(C(C)C)CC3)n(CC(=O)Nc3ccc(Cl)cn3)c2cn1", "false"),
    ("CC(C)CCCCCCOC(=O)c1ccc(C(=O)OCCCCCCC(C)C)c(C(=O)OCCCCCCC(C)C)c1", "false"),
    ("CCCCCCCCCCCCCCCO", "true"),
    ("CN(C)c1ccc(N=NS(=O)(=O)O)cc1", "false"),
    ("Clc1nc(Cl)c(Cl)c(Cl)c1Cl", "true"),
    ("CC[C@H]1OC(=O)[C@H](C)[C@@H](O[C@H]2C[C@@](C)(OC)[C@@H](O)[C@H](C)O2)[C@H](C)[C@@H](O[C@@H]2O[C@H](C)C[C@H](N(C)C)[C@H]2O)[C@](C)(O)C[C@@H](C)C(=O)[C@H](C)[C@@H](O)[C@]1(C)O", "false"),
    ("CC(C)=CCCC(C)=CC=O", "false"),
    ("CCN(C(=O)c1cc(C)cc(OC[C@H](C)Nc2ccncc2)c1)C(C)C", "false"),
    ("O=c1n(CC2CO2)c(=O)n(CC2CO2)c(=O)n1CC1CO1 (configuration not stated)", "true"),
    ("COC(=O)c1ccccc1O", "false"),
    ("O=C(O)c1cccc(N(Cc2cccnc2)c2ccc(OC(F)F)c(OC(F)F)c2)c1", "false"),
    ("O=C(NS(=O)(=O)/C=C/c1ccccc1)c1ccc(F)cc1Cl", "false"),
    ("Cc1ccc(O)cc1", "false"),
    ("O=C1CCCCCN1", "false"),
    ("O=C1CCC(N2C(=O)c3ccccc3C2=O)C(=O)N1 (configuration not stated)", "false"),
    ("CC/C(=C\\C(=N/O)C(N)=O)C(C)[N+](=O)[O-] (configuration not stated)", "false"),
    ("COCCOCCOCCOC", "false"),
    ("CCCCC(CC)COC(=O)c1ccc(C(=O)OCC(CC)CCCC)cc1 (configuration not stated)", "false"),
    ("COc1ccc(/C=C/S(=O)(=O)NC(=O)c2ccc(C)cc2Cl)cc1", "false"),
    ("NC(=O)NO", "false"),
    ("CCn1nc(Cc2ccccc2)cc1C1CCN(C[C@H]2C[C@H](N(C)[C@@H](C(=O)O)C(C)C)C[C@@H]2c2cccc(F)c2)CC1", "false"),
    ("O=C(O)c1cccc(Oc2ccccc2)c1", "false"),
    ("O=C(O)CCN(C1(C(=O)NO)CCCC1)S(=O)(=O)c1ccc(Oc2ccc(F)cc2)cc1", "false"),
    ("CNS(=O)(=O)c1cc(C(=O)N2CCC(CCN3C4CCC3CC(n3c(C)nc5ccccc53)C4)(c3cccc(F)c3)CC2)c(Cl)cc1F (configuration not stated)", "true"),
    ("C=CCCCCCCCCC(=O)O", "false"),
    ("COc1cccc(-c2ccc(/C=C\\CN3CCCCCC3)cc2Cl)c1", "false"),
    ("CCOC(=O)c1ccc(C2CCC(NC[C@H](O)COc3ccc(O)c(NS(C)(=O)=O)c3)CC2)cc1 (some centres not stated)", "true"),
    ("CC1=CC(=O)CC(C)(C)C1", "false"),
    ("C1=CCCC=CCCC=CCC1", "false"),
    ("CC(=O)OC[C@H]1O[C@@](COC(C)=O)(O[C@H]2O[C@H](COC(C)=O)[C@@H](OC(C)=O)[C@H](OC(C)=O)[C@H]2OC(C)=O)[C@@H](OC(C)=O)[C@@H]1OC(C)=O", "false"),
    ("On1ccccc1=S", "false"),
    ("CC(C)c1cccc(C(C)C)c1N1C(=O)c2ccc(O)cc2C1=O", "true"),
    ("CC(C)CCO", "false"),
    ("CCCCC(CC)COC(=O)CCCCCCCCC(=O)OCC(CC)CCCC (configuration not stated)", "false"),
    ("CC(C)CCCCCCCOC(=O)CCCCC(=O)OCCCCCCCC(C)C", "false"),
    ("CCCCCCCCO", "false"),
    ("CC(C)(O)c1coc(S(=O)(=O)NC(=O)Nc2c3c(cc4c2CCC4)CCC3)c1", "false"),
    ("O=C(O)CC(O)C(=O)O (configuration not stated)", "false"),
    ("COc1ccc(-n2nc(C(F)F)cc2-c2ccc(S(C)=O)cc2)cc1 (configuration not stated)", "false"),
    ("CC(C)CC(C)(O)C#CC(C)(O)CC(C)C (configuration not stated)", "false"),
    ("CCOC(=O)COc1ccc2c(c1)CC(NCC(O)c1cccc(Cl)c1)CC2 (configuration not stated)", "true"),
    ("CC1(C)C(=O)N(Br)C(=O)N1Br", "false"),
]
